- measured on: CYP2C9 (Homo sapiens, UniProt P11712)
- Sequence (P11712 whole entry): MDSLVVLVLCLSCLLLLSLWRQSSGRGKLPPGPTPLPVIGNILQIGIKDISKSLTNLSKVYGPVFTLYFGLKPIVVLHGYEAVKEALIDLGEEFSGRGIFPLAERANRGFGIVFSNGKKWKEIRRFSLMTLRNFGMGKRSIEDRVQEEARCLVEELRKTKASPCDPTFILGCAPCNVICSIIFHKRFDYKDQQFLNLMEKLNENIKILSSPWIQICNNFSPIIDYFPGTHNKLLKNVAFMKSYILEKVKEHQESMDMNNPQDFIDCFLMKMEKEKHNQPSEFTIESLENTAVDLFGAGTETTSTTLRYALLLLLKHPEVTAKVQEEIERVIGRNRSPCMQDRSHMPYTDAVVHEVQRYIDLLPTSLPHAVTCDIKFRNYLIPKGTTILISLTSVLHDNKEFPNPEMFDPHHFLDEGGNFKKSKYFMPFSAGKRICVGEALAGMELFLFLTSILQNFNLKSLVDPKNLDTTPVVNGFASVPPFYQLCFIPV
- test: in vitro
- test conditions: microsomes
pIC50: −log10 of the molar value.
compounds and their reported pIC50

| structure as smiles | measured on | pIC50 |
| --- | --- | --- |
| CC(C)C[C@@H]1NC(=O)[C@H](Cc2ccc(-c3ccccc3)cc2)NC(=O)[C@@H]2CCCN2[C@H](C(=O)NC(C)(C)C)[C@H](C)NC(=O)[C@H]([C@@H](C)O)NC(=O)[C@H](CC(=O)O)NC1=O | CYP2C9 (Homo sapiens, UniProt P11712) | < 4.82 |
| CC(C)C[C@@H]1NC(=O)[C@H](Cc2ccccc2)NC(=O)[C@@H]2CCCN2[C@H](C(=O)NC(C)(C)C)[C@H](C)NC(=O)[C@H]([C@@H](C)O)NC(=O)[C@H](CC(=O)O)NC1=O | CYP2C9 (Homo sapiens, UniProt P11712) | < 4.82 |

====

compounds and their reported pIC50
- measured on: CYP3A4 (Homo sapiens, UniProt P08684)
- Sequence (P08684 whole entry): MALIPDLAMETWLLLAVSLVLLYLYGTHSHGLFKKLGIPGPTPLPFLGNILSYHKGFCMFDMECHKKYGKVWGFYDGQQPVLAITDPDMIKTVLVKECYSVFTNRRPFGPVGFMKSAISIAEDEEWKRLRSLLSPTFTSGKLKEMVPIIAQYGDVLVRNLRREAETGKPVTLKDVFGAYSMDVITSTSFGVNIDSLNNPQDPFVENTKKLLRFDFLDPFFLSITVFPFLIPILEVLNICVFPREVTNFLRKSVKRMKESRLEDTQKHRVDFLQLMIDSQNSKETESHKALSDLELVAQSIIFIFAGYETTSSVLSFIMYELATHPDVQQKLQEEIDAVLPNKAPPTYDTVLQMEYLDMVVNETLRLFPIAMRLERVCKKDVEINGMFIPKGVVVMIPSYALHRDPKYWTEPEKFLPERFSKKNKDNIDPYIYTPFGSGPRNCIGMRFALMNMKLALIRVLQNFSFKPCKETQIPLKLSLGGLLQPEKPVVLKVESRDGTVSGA
- test: in vitro
- test conditions: microsomes
pIC50: −log10 of the molar value.
assay endpoint: pIC50

| structure as smiles | recorded value |
| --- | --- |
| CC(C)C[C@@H]1NC(=O)[C@H](Cc2ccc(-c3ccccc3)cc2)NC(=O)[C@@H]2CCCN2[C@H](C(=O)NC(C)(C)C)[C@H](C)NC(=O)[C@H]([C@@H](C)O)NC(=O)[C@H](CC(=O)O)NC1=O | < 4.82 |
| CC(C)C[C@@H]1NC(=O)[C@H](Cc2ccccc2)NC(=O)[C@@H]2CCCN2[C@H](C(=O)NC(C)(C)C)[C@H](C)NC(=O)[C@H]([C@@H](C)O)NC(=O)[C@H](CC(=O)O)NC1=O | < 4.82 |

====

molecules and their reported Selectivity ELISA
- measured on: integrin α4β7 (Homo sapiens, UniProt P13612+P26010)
- Sequence (P13612 34-977 limits assumed): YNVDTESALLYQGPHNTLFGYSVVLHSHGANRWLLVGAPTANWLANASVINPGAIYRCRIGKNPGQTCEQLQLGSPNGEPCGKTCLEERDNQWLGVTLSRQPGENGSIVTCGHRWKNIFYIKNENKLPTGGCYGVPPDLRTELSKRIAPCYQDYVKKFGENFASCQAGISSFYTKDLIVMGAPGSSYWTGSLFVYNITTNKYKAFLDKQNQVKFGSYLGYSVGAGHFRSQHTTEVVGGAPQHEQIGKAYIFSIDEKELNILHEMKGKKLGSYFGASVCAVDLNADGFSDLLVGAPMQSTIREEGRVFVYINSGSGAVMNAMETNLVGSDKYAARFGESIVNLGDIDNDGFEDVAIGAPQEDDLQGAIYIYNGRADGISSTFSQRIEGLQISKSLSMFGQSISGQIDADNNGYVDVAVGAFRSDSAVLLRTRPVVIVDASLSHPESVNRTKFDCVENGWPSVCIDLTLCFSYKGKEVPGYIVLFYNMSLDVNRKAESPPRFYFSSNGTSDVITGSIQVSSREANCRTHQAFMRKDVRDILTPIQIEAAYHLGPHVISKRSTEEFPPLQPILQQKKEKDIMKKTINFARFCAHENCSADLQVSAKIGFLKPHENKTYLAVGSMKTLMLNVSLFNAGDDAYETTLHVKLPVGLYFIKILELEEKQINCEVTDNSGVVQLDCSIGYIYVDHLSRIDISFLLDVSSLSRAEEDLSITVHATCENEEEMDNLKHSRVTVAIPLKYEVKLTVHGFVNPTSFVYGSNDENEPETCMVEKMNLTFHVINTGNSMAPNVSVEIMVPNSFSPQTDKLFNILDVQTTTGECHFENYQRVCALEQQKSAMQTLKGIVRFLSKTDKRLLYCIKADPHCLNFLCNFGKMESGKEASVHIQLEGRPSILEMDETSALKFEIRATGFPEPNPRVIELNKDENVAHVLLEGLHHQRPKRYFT
- Sequence (P26010 20-723 limits assumed): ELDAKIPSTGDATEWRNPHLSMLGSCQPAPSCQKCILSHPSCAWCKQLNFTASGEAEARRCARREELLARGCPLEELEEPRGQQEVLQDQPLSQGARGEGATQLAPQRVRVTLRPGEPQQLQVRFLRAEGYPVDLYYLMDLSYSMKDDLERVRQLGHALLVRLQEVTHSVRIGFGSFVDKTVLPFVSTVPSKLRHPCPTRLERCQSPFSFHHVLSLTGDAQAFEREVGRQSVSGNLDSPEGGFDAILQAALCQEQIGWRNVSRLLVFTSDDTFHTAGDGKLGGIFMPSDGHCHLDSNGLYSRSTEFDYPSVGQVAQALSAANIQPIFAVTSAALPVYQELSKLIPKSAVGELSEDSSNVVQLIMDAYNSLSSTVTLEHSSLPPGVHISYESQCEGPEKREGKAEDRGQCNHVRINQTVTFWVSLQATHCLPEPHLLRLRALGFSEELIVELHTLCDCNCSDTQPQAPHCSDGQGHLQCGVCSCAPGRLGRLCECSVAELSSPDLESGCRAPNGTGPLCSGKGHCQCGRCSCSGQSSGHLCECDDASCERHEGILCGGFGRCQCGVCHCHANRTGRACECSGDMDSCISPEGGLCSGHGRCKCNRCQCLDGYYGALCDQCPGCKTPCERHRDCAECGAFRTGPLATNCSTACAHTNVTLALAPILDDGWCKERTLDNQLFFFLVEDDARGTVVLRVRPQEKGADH
- test: Integrin α4β7—MAdCAM-1 competition assay (ELISA)
- Type: binding
- test conditions: ratio a4b1 ELISA IC50 / a4b7 ELISA IC50
assay endpoint: Selectivity ELISA

| molecule | recorded value |
| --- | --- |
| CC(C)C[C@@H]1NC(=O)c2ccc(-c3cccc(CN)c3)c(c2)CNC(=O)[C@@H]2CCCN2[C@H](C(=O)NC(C)(C)C)[C@H](C)NC(=O)[C@H]([C@@H](C)O)NC(=O)[C@H](CC(=O)O)NC1=O [Compound 382] | 2.0 |
| CC(C)C[C@@H]1NC(=O)[C@@H]2CCN2C(=O)C[C@H](CCCCN)NC(=O)[C@@H]2CCCN2[C@H](C(=O)NC(C)(C)C)[C@H](C)NC(=O)[C@H]([C@@H](C)O)NC(=O)[C@H](CC(=O)O)NC1=O [Compound 319] | 4.8 |
| CC(C)C[C@@H]1NC(=O)C[C@H](CCCCN)NC(=O)[C@H](Cc2ccc(CN)cc2)NC(=O)[C@@H]2CCCN2[C@H](C(=O)NC(C)(C)C)[C@H](C)NC(=O)[C@H](C(C)C)NC(=O)[C@H](CC(=O)O)NC1=O [Compound 254] | 33.0 |
| CC(C)C[C@@H]1NC(=O)c2ccc(-c3cccc(CN)c3)c(c2)CNC(=O)[C@H](Cc2ccc(O)cc2)NC(=O)[C@@H]2CCCN2[C@H](C(=O)NC(C)(C)C)[C@H](C)NC(=O)[C@H]([C@@H](C)O)NC(=O)[C@H](CC(=O)O)NC1=O [Compound 339] | 5.8 |

====

- measured on: integrin α4β7 (Homo sapiens, UniProt P13612+P26010)
- test: Integrin α4β7—MAdCAM-1 competition assay (ELISA)
- Format: binding
- test conditions: ratio a4b1 ELISA IC50 / a4b7 ELISA IC50
compounds and their reported Selectivity ELISA

| compound | Selectivity ELISA |
| --- | --- |
| COc1cccc(Cl)c1-c1ccc(C[C@@H]2NC(=O)[C@@H]3CCCN3[C@H](C(=O)NC(C)(C)C)[C@H](C)NC(=O)[C@H]([C@@H](C)O)NC(=O)[C@H](CC(=O)O)NC(=O)[C@H](CC(C)C)NC(=O)C[C@H](CCCCN)NC2=O)cc1 [Compound 269] | 31.6 |
| CC(C)C[C@@H]1NC(=O)CNC(=O)[C@H](Cc2ccc(CN)cc2)NC(=O)[C@@H]2CCCN2[C@H](C(=O)NC(C)(C)C)[C@H](C)NC(=O)[C@H]([C@@H](C)O)NC(=O)[C@H](CC(=O)O)NC1=O [Compound 165] | 22.8 |
| CC(C)C[C@@H]1NC(=O)[C@H]2C[C@H](O)CN2C(=O)[C@H](Cc2ccc(O)cc2)NC(=O)[C@@H]2CCCN2[C@H](C(=O)NC(C)(C)C)[C@H](C)NC(=O)[C@H]([C@@H](C)O)NC(=O)[C@H](CC(=O)O)NC1=O [Compound 140] | 9.6 |
| CC[C@@H](C)[C@@H]1NC(=O)[C@H](CC(=O)O)NC(=O)[C@H](CC(C)C)NC(=O)C[C@H](CCCCN)NC(=O)[C@H](Cc2ccc(CN)cc2)NC(=O)[C@@H]2CCCN2[C@H](C(=O)NC(C)(C)C)[C@H](C)NC1=O [Compound 285] | 6.2 |

====

- measured on: CYP2D6 (Homo sapiens, UniProt P10635)
- Sequence (P10635 whole entry): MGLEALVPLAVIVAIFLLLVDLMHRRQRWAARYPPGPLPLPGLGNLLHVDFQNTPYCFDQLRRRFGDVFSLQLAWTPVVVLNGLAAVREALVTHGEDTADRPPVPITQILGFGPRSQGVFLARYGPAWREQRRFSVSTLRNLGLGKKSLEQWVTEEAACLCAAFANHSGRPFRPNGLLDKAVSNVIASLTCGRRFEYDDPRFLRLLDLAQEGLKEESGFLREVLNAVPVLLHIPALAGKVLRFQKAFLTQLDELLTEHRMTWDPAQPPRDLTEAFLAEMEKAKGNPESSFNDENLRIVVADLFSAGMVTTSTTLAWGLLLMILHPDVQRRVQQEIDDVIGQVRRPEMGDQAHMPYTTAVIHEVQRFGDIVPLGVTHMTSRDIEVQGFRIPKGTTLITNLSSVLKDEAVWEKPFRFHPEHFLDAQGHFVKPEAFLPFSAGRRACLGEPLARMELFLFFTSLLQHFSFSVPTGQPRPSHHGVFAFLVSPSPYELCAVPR
- test: in vitro
- test conditions: microsomes
- Experimental: Cytochrome P450 Inhibition Assay Analyses were performed using standard LC/MS/MS protocols.

| structure as smiles | IC50 |
| --- | --- |
| CC(C)C[C@@H]1NC(=O)[C@H](Cc2ccccc2)NC(=O)[C@@H]2CCCN2[C@H](C(=O)NC(C)(C)C)[C@H](C)NC(=O)[C@H]([C@@H](C)O)NC(=O)[C@H](CC(=O)O)NC1=O | > 15 µM |
| CC(C)C[C@@H]1NC(=O)[C@H](Cc2ccc(-c3ccccc3)cc2)NC(=O)[C@@H]2CCCN2[C@H](C(=O)NC(C)(C)C)[C@H](C)NC(=O)[C@H]([C@@H](C)O)NC(=O)[C@H](CC(=O)O)NC1=O | > 15 µM |

====

molecules and their reported Determined concentration Rep 3
- test: Aqueous solubility assay
- Assay type: physicochemical
- test conditions: PBS pH 7.4, 4 h, room temperature; replicate 3

| molecule | Determined concentration Rep 3, µM |
| --- | --- |
| CC(C)C[C@@H]1NC(=O)c2cccc(c2)CNC(=O)[C@@H]2CCCN2[C@H](C(=O)NC(C)(C)C)[C@H](C)NC(=O)[C@H]([C@@H](C)O)NC(=O)[C@H](CC(=O)O)NC1=O [UM0134690-01] | 920.8 |
| CC(C)C[C@@H]1NC(=O)[C@H](Cc2ccc(O)cc2)NC(=O)[C@H](C)NC(=O)[C@@H]2CCCN2[C@H](C(=O)NC(C)(C)C)[C@H](C)NC(=O)[C@H]([C@@H](C)O)NC(=O)[C@H](CC(=O)O)NC1=O [UM0134830-01] | 971.7 |

====

- test: Aqueous solubility assay
- Assay type: physicochemical
- test conditions: PBS pH 7.4, 4 h, room temperature; replicate 3

| molecule | output unit | Determined concentration Rep 3 |
| --- | --- | --- |
| CC(C)C[C@@H]1NC(=O)CNC(=O)[C@H](Cc2ccc(O)cc2)NC(=O)[C@@H]2CCCN2[C@H](C(=O)NC(C)(C)C)[C@H](C)NC(=O)[C@H]([C@@H](C)O)NC(=O)[C@H](CC(=O)O)NC1=O [UM0134677-01] | µM | 217.8 |
| CC(C)C[C@@H]1NC(=O)[C@H](CCCN)NC(=O)[C@@H]2CCCN2[C@H](C(=O)NC(C)(C)C)[C@H](C)NC(=O)[C@H]([C@@H](C)O)NC(=O)[C@H](CC(=O)O)NC1=O [UM0132377-01] | µM | 211.2 |
| CC(C)C[C@@H]1NC(=O)[C@@H](Cc2ccc(O)cc2)NC(=O)[C@@H]2CCCN2[C@H](C(=O)NC(C)(C)C)[C@H](C)NC(=O)[C@H]([C@@H](C)O)NC(=O)[C@H](CC(=O)O)NC1=O [UM0132375-02] | µM | 936.8 |
| CC(C)C[C@@H]1NC(=O)[C@H](Cc2ccc(O)cc2)NC(=O)[C@@H]2CCCN2[C@H](C(=O)NC(C)(C)C)[C@H](C)NC(=O)[C@H]([C@@H](C)O)NC(=O)[C@H](CC(=O)O)NC1=O [UM0131995-05] | µM | 914.7 |
| CC(C)C[C@@H]1NC(=O)C2(CCCC2)NC(=O)[C@@H]2CCCN2[C@H](C(=O)NC(C)(C)C)[C@H](C)NC(=O)[C@H]([C@@H](C)O)NC(=O)[C@H](CC(=O)O)NC1=O [UM0132368-01] | µM | 934.3 |
| CC(C)C[C@@H]1NC(=O)[C@H](CCCCN)NC(=O)[C@@H]2CCCN2[C@H](C(=O)NC(C)(C)C)[C@H](C)NC(=O)[C@H]([C@@H](C)O)NC(=O)[C@H](CC(=O)O)NC1=O [UM0132376-01] | µM | 939.5 |
| C=CCOc1ccc(C[C@@H]2NC(=O)[C@@H]3CCCN3[C@H](C(=O)NC(C)(C)C)[C@H](C)NC(=O)[C@H]([C@@H](C)O)NC(=O)[C@H](CC(=O)O)NC(=O)[C@H](CC(C)C)NC2=O)cc1 [UM0132371-01] | µM | 879.6 |
